Values were extracted from patent US20180245067A1.

Molecular target: T1, yeast Small Ubiquitin-like Modifier protein (SUMO) (yeast, UniProt Q12306 1-98 = SUMO)
T1 construct: also called ySUMO; yeast SUMO
T1 sequence (Q12306 1-98 limits assumed): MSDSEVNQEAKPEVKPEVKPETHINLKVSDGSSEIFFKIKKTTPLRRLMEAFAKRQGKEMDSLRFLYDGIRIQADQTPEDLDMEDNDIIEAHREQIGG
Test: BioLayer Interferometry (BLitz), biotinylated Adhiron on streptavidin biosensor, global fit
ASSAY ENDPOINT: Kd
Please append the unit to your numeric answer.

Ask: Entry Ad-ySUMO 10 (designed binder, also called clone 10) NSLEIEELARFAVDEHNKKENALLEFVRVVKAKEQIIIHENDADTMYYLTLEAKDGGKKKLYEAKVWVKGIMDGLNKYNFKELQEFKPVGDA : reported Kd = ?
Result: 11.5 nM

Ask: Entry Ad-ySUMO 20 (designed binder, also called clone 20) NSLEIEELARFAVDEHNKKENALLEFVRVVKAKEQIDLTGQWLFTMYYLTLEAKDGGKKKLYEAKVWVKPLWQYDAQYNFKELQEFKPVGDA : reported Kd = ?
Result: 14.2 nM

Ask: Entry Ad-ySUMO 22 (designed binder, also called clone 22) NSLEIEELARFAVDEHNKKENALLEFVRVVKAKEQIDLTQSFDMTMYYLTLEAKDGGKKKLYEAKVWVKPIDSNFTGTNFKELQEFKPVGDA : reported Kd = ?
Result: 9 nM

Ask: Entry Ad-ySUMO 15 (designed binder, also called clone 15; Yeast Sumo Adhiron 15) NSLEIEELARFAVDEHNKKENALLEFVRVVKAKEQIDLTQPHDSTMYYLTLEAKDGGKKKLYEAKVWVKYEEDEYWRMNFKELQEFKPVGDA : reported Kd = ?
Result: 2.4 nM
